Experiment: Toxicity on the same plates (ATPlite cell viability)
Settings: African green monkey, CC50, Vero cells, same plates as DENV-2 antiviral assay
recordedMetric: CC50

COc1cc(NC(C(=O)c2c[nH]c3c(C)cc(OC(F)(F)F)cc23)c2ccc(Cl)cc2OC)cc(OCCO)c1 (single isomer, unassigned) [Compound 16A] | 2.4 µM
COc1cc(NC(C(=O)c2c[nH]c3ccc(OC(F)(F)F)cc23)c2ccc(F)cc2OC)cc(OCCO)c1 (single isomer, unassigned) [Compound 5A] | 5.4 µM
COc1cc(NC(C(=O)c2c[nH]c3cc(OC)c(OC(F)(F)F)cc23)c2ccc(F)cc2OC)cc(OCCO)c1 (racemic) | 3.6 µM

====

Test system: DENV-2 strain 16681
Assay: Tetravalent RT-qPCR assay, serotype 2
Assay type: cell-based
Settings: Dengue virus, DENV2, 72 h; RT-qPCR serotype 2 16681, Protocol A, Vero cells, day 3
So basically, if EC50 comes in under 200 pM it's fulfilled, and if it's 200 pM or more it's not fulfilled.

COc1cc(NC(C(=O)c2c[nH]c3cc(OC)c(C(F)(F)F)cc23)c2ccc(F)cc2OC)cc(OCCO)c1 (single isomer, unassigned) [Compound 2A] | not fulfilled
COc1cc(NC(C(=O)c2c[nH]c3c(C)cc(OC(F)(F)F)cc23)c2ccc(F)cc2OC)cc(OCCO)c1 (single isomer, unassigned) [Compound 8A] | not fulfilled
COc1cc(NC(C(=O)c2c[nH]c3cc(F)c(C(F)(F)F)cc23)c2ccc(Cl)cc2OC)cc(OCCO)c1 (single isomer, unassigned) [Compound 11A] | not fulfilled
COc1cc(NC(C(=O)c2c[nH]c3ccc(C(F)(F)F)cc23)c2ccc(Cl)cc2OC)cc(OCCO)c1 (single isomer, unassigned) [Compound 9B] | not fulfilled
COc1cc(NC(C(=O)c2c[nH]c3cc(OC)c(OC(F)(F)F)cc23)c2ccc(F)cc2OC)cc(OCCO)c1 (single isomer, unassigned) [Compound 6A] | not fulfilled
COc1cc(NC(C(=O)c2c[nH]c3cc(OC)c(OC(F)(F)F)cc23)c2ccc(Cl)cc2OC)cc(OCCO)c1 (single isomer, unassigned) [Compound 14A] | fulfilled

====

Assay: Cytotoxicity in RT-qPCR assay (Cp of housekeeping gene β-actin)
Format: cell-based
Settings: African green monkey, RT-qPCR serotype 3 H87, Protocol A
recordedMetric: CC50 at 3 days

COc1cc(NC(C(=O)c2c[nH]c3cc(OC)c(OC(F)(F)F)cc23)c2ccc(F)cc2OC)cc(OCCO)c1 (single isomer, unassigned) [Compound 6A] | > 2.5 µM
COc1cc(NC(C(=O)c2c[nH]c3cc(F)c(OC(F)(F)F)cc23)c2ccc(F)cc2OC)cc(OCCO)c1 (single isomer, unassigned) [Compound 7B] | > 2.5 µM
COc1cc(NC(C(=O)c2c[nH]c3c(C)cc(C(F)(F)F)cc23)c2ccc(F)cc2OC)cc(OCCO)c1 (single isomer, unassigned) [Compound 4B] | > 2.5 µM
COc1cc(NC(C(=O)c2c[nH]c3c(C)cc(OC(F)(F)F)cc23)c2ccc(F)cc2OC)cc(OCCO)c1 (single isomer, unassigned) [Compound 8A] | > 2.4 µM
COc1cc(NC(C(=O)c2c[nH]c3cc(F)c(OC(F)(F)F)cc23)c2ccc(Cl)cc2OC)cc(OCCO)c1 (single isomer, unassigned) [Compound 15B] | > 2.4 µM
COc1cc(NC(C(=O)c2c[nH]c3ccc(C(F)(F)F)cc23)c2ccc(Cl)cc2OC)cc(OCCO)c1 (single isomer, unassigned) [Compound 9B] | > 2.5 µM
